- measurement-target: WEE2 (human)
- procedure-text: KINOMEscan competition binding
- run-conditions: compound 10.0 µM
readout: kinase still bound, per cent of control (%)
// return numeric value only (unit: %, not printed)

What kinase still bound, per cent of control appears in the records for this compound with WEE2 (human)? OCCCNc1cc(-c2ccnc(Nc3cccc(Cl)c3)n2)ccn1
100

---

- Tested on: PIK3CA (human), P42336 [H1047Y]
- Sequence (P42336 whole entry H1047Y, looked up): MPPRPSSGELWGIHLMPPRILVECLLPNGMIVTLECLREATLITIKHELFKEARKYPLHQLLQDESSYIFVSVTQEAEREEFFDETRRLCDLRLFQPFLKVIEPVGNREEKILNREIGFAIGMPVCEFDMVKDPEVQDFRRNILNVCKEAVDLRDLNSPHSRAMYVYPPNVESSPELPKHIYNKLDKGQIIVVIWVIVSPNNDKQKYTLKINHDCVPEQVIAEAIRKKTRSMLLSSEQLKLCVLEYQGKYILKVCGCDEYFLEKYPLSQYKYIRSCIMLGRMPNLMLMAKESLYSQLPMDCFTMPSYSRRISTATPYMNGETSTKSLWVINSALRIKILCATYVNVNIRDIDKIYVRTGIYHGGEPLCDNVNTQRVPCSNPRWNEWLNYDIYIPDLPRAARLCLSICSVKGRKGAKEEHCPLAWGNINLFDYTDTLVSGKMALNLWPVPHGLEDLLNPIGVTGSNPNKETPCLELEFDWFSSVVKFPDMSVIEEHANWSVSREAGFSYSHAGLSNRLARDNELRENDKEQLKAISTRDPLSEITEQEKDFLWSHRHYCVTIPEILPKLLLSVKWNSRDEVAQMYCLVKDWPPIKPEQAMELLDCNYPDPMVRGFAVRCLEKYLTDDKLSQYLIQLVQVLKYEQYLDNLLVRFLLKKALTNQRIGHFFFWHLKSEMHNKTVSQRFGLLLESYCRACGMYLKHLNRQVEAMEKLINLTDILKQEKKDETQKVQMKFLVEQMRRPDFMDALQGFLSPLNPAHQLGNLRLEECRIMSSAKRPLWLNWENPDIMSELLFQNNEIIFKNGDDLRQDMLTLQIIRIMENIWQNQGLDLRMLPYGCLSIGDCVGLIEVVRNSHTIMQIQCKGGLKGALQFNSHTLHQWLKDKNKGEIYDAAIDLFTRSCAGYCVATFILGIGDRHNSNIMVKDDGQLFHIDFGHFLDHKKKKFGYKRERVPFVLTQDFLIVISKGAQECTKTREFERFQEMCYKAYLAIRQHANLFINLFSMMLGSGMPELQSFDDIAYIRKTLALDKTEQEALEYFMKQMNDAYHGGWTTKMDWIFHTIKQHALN
- procedure-text: KINOMEscan competition binding
- run-conditions: compound 10.0 µM
readout: kinase still bound, per cent of control
Please don't drop the unit; write it after the number.

Consider the compound shown here: O=C1Nc2ccc(I)cc2/C1=C/c1cc(Br)c(O)c(Br)c1 What is its recorded kinase still bound, per cent of control?
76%

Fill blank: measured kinase still bound, per cent of control of the compound CN(C)C/C=C/C(=O)Nc1cccc(Nc2ncc3c(n2)N(C)c2ccccc2C(=O)N3C)c1 is ____.
51%

May I ask what kinase still bound, per cent of control has been recorded for COc1cc2ncnc(Nc3cccc(Cl)c3)c2cc1OC ?
95%

What does the record list as kinase still bound, per cent of control for COc1cc(C(=O)N2CCC(N3CCN(C)CC3)CC2)ccc1Nc1ncc2c(n1)N(C)c1ccccc1C(=O)N2C ?
71%

I'd like to know its kinase still bound, per cent of control. The compound in question is CC(=O)c1c(C)c2cnc(Nc3ccc(N4CCNCC4)cn3)nc2n(C2CCCC2)c1=O
17%

Further cases:
Recorded kinase still bound, per cent of control for O=C(NC1CC1)c1cccc(-c2ccc3c(NC(=O)C4CC4)n[nH]c3c2)c1 , please?
89%

Which kinase still bound, per cent of control is listed for CCN(CCO)CCCOc1ccc2c(Nc3cc(CC(=O)Nc4cccc(F)c4)[nH]n3)ncnc2c1 ?
30%

---

Catalogue of compounds with associated kinase still bound, per cent of control
- measurement-target: CSNK2A2 (human) (UniProt P19784)
- Sequence (P19784 whole entry, looked up): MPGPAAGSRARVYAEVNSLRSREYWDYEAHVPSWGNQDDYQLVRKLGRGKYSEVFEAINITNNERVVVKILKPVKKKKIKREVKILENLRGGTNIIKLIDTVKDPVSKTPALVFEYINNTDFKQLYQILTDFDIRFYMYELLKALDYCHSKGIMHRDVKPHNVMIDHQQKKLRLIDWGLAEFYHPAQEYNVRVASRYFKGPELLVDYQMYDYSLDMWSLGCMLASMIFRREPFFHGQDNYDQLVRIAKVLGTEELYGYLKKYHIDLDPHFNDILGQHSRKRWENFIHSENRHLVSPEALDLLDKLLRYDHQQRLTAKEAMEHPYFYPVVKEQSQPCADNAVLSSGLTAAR
- procedure-text: KINOMEscan competition binding
- run-conditions: compound 10.0 µM

Need kinase still bound, per cent of control, item COc1cc(C(=O)NC2CCN(C)CC2)ccc1Nc1ncc2c(n1)N(C1CCCC1)CCC(=O)N2C(C)C
100%

Could you share which kinase still bound, per cent of control value was measured for C=CC(=O)Nc1cc(NC(=O)c2ccc(C)c(NC(=O)c3ccno3)c2)cc(C(F)(F)F)c1 ?
81%

May I ask what kinase still bound, per cent of control has been recorded for COc1cc(N2CCN(C)CC2)ccc1Nc1nc(N)c(C(=O)c2c(Cl)cccc2Cl)s1 ?
88%

Further cases:
What kinase still bound, per cent of control value was documented for this compound, C=CC(=O)Nc1cccc(Nc2nc(N[C@H]3CC[C@H](N(C)C)CC3)nc3c2ncn3C(C)C)c1 ?
48%

What does the record list as kinase still bound, per cent of control for CC[C@@H]1C(=O)N(C)c2cnc(Nc3ccc(C(=O)NC4CCN(C)CC4)cc3OC)nc2N1C1CCCC1 ?
100%

---

- measurement-target: NLK (human) (UniProt Q9UBE8)
- Sequence (Q9UBE8 whole entry, looked up): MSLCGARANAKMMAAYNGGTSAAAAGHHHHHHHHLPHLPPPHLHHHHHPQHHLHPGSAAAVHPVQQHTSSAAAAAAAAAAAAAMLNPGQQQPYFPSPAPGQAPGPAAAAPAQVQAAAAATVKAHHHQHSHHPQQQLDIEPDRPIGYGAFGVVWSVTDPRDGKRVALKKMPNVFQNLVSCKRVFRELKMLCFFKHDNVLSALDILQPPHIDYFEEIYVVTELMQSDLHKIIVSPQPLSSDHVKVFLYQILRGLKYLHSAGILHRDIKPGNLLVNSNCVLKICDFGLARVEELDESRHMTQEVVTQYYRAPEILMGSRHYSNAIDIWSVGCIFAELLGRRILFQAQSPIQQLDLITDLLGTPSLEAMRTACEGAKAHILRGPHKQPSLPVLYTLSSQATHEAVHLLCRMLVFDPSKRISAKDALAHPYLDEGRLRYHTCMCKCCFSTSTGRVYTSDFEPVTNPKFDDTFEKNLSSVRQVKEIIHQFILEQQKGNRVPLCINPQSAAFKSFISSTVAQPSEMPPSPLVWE
- procedure-text: KINOMEscan competition binding
- run-conditions: compound 10.0 µM
kinase still bound, per cent of control vs 80%: less than gives Satisfied; not less than gives Not satisfied.

Confirm or reject: kinase still bound, per cent of control of C=CC(=O)Nc1cccc(Oc2nc(Nc3ccc(N4CCN(C)CC4)cc3OC)ncc2Cl)c1 lies strictly below 80%
Not satisfied

Input OCCCNc1cc(-c2ccnc(Nc3cccc(Cl)c3)n2)ccn1 ; condition: kinase still bound, per cent of control strictly below 80%. Does it hold?
Not satisfied

Others:
kinase still bound, per cent of control strictly < 80% for this molecule? Cc1ccc(C(=O)Nc2cccc(C(F)(F)F)c2)cc1Nc1cncc(C(N)=O)c1
Not satisfied

Find out if reported kinase still bound, per cent of control for Cc1cc([C@@H](C)Nc2ccccc2C(=O)O)c2nc(N3CCOCC3)cc(=O)n2c1 is less than 80%
Not satisfied

Report whether reported kinase still bound, per cent of control is lower than 80% (strictly) for CCOc1cc2ncc(C#N)c(Nc3ccc(OCc4ccccn4)c(Cl)c3)c2cc1NC(=O)/C=C/CN(C)C
Not satisfied

Answer whether the molecule C[C@@H](Oc1cc(-n2cnc3ccc(CN4CCN(C)CC4)cc32)sc1C(N)=O)c1ccccc1C(F)(F)F has kinase still bound, per cent of control strictly less than 80%
Not satisfied

kinase still bound, per cent of control under 80%? Item: N#Cc1c(NC(=O)c2cccc3ccccc23)sc2c1CCCC2
Satisfied

Item CCC(=O)N1CCN(c2ccc(-n3c(=O)ccc4cnc5ccc(-c6cnc7ccccc7c6)cc5c43)cc2C(F)(F)F)CC1 : kinase still bound, per cent of control beneath 80%, strictly?
Satisfied

Hello, I'm reviewing records and need to know if kinase still bound, per cent of control of COc1cc(N2CCN(C)CC2)ccc1Nc1nc(N)c(C(=O)c2c(Cl)cccc2Cl)s1 is below 80%. Could you check?
Not satisfied

Does the reported kinase still bound, per cent of control of C=CC(=O)Nc1cccc(Nc2nc(N[C@H]3CC[C@H](N(C)C)CC3)nc3c2ncn3C(C)C)c1 stay below 80%?
Not satisfied

Input O=C1Nc2ccc(I)cc2/C1=C/c1cc(Br)c(O)c(Br)c1 ; condition: kinase still bound, per cent of control strictly below 80%. Does it hold?
Satisfied

---

- measurement-target: MAP2K6 (human)
- procedure-text: KINOMEscan competition binding
- run-conditions: compound 10.0 µM
Listing: kinase still bound, per cent of control of selected compounds
Expressed in %, but write only the number.

Look over these answered cases.
Record request: kinase still bound, per cent of control value, item CC[C@@H]1C(=O)N(C)c2cnc(Nc3ccc(C(=O)NC4CCN(C)CC4)cc3OC)nc2N1C1CCCC1
100

Fill blank: measured kinase still bound, per cent of control of the compound OCCCNc1cc(-c2ccnc(Nc3cccc(Cl)c3)n2)ccn1 is ____.
100

New cases:
So what does the record say about kinase still bound, per cent of control for CCOc1cc2ncc(C#N)c(Nc3ccc(OCc4ccccn4)c(Cl)c3)c2cc1NC(=O)/C=C/CN(C)C ?
100

I am curious: what kinase still bound, per cent of control value has been reported for Cc1ccc2nc(NCCN)c3ncc(C)n3c2c1 ?
88

Query (compound): O=C(NC1CC1)c1cccc(-c2ccc3c(NC(=O)C4CC4)n[nH]c3c2)c1 ; field requested: kinase still bound, per cent of control
55

---

The entries below come with measured kinase still bound, per cent of control values attached.
- measurement-target: UniProtKB Q9BUB5
- Sequence (Q9BUB5 whole entry, looked up): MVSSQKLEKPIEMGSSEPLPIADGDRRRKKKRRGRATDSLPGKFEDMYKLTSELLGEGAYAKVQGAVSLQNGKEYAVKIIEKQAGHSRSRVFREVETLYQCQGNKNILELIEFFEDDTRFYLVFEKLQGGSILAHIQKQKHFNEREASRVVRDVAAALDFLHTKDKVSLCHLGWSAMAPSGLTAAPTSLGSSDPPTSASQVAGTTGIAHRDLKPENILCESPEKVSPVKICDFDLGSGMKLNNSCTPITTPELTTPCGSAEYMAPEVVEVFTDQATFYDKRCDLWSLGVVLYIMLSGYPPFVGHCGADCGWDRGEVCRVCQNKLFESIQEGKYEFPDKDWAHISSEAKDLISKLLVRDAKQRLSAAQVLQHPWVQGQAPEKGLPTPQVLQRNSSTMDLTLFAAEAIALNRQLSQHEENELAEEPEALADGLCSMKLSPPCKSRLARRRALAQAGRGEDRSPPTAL
- procedure-text: KINOMEscan competition binding
- run-conditions: compound 10.0 µM
Respond with the bare value in %.

kinase still bound, per cent of control lookup needed for N#Cc1c(NC(=O)c2cccc3ccccc23)sc2c1CCCC2 , thanks.
100

***
Please look up its kinase still bound, per cent of control: Nc1ccc(-c2ccc3ncc4ccc(=O)n(-c5cccc(C(F)(F)F)c5)c4c3c2)cn1
43

Request the reported kinase still bound, per cent of control associated with CCN1CCN(Cc2ccc(Nc3ncc4c(n3)N(C)c3ccccc3C(=O)N4C)cc2C(F)(F)F)CC1
100

Can you look up the measured kinase still bound, per cent of control of C=CC(=O)Nc1cc(NC(=O)c2ccc(C)c(NC(=O)c3ccno3)c2)cc(C(F)(F)F)c1 for me?
100

Please report the recorded kinase still bound, per cent of control for COc1cc(C(=O)NC2CCN(C)CC2)ccc1Nc1ncc2c(n1)N(C1CCCC1)C(C)CC(=O)N2C (stereo not given) .
100

Report kinase still bound, per cent of control for Cc1ccc(C(=O)Nc2cccc(C(F)(F)F)c2)cc1Nc1cncc(C(N)=O)c1 please.
100

If you can, please state the reported kinase still bound, per cent of control value of O=C(O)c1ccc(Nc2ncc3c(n2)-c2ccc(Cl)cc2C(c2c(F)cccc2F)=NC3)cc1 .
100

Requested field: kinase still bound, per cent of control. Item: CN(C)C/C=C/C(=O)Nc1cccc(Nc2ncc3c(n2)N(C)c2ccccc2C(=O)N3C)c1
38

So what's the measured kinase still bound, per cent of control for this one? C=CC(=O)Nc1cccc(Nc2nc(N[C@H]3CC[C@H](N(C)C)CC3)nc3c2ncn3C(C)C)c1
32

I'd like to know its kinase still bound, per cent of control. The molecule in question is Cc1ccc(NC(=O)c2cccc(C(C)(C)C#N)c2)cc1Nc1ccc2ncn(C)c(=O)c2c1
100

Look up kinase still bound, per cent of control: C=CC(=O)Nc1cccc(Oc2nc(Nc3ccc(N4CCN(C)CC4)cc3OC)ncc2Cl)c1
100

Bench note: what kinase still bound, per cent of control did CCCS(=O)(=O)Nc1ccc(F)c(C(=O)c2c[nH]c3ncc(-c4ccc(Cl)cc4)cc23)c1F show?
70

Need kinase still bound, per cent of control, item COc1cc(N2CCN(C)CC2)ccc1Nc1nc(N)c(C(=O)c2c(Cl)cccc2Cl)s1
51

---

Quick reference: kinase still bound, per cent of control of the listed items.
- measurement-target: SGK3 (human)
- procedure-text: KINOMEscan competition binding
- run-conditions: compound 10.0 µM
Only the number, expressed in %, is required.

Example results:
Request the reported kinase still bound, per cent of control associated with Cc1ccc2nc(NCCN)c3ncc(C)n3c2c1
100

Which kinase still bound, per cent of control value is on record for Cc1ccc(NC(=O)c2cccc(C(C)(C)C#N)c2)cc1Nc1ccc2ncn(C)c(=O)c2c1 ?
100

Requested read-out: kinase still bound, per cent of control. Entry: C[C@@H](Oc1cc(-n2cnc3ccc(CN4CCN(C)CC4)cc32)sc1C(N)=O)c1ccccc1C(F)(F)F
28

Data request, read-out kinase still bound, per cent of control, for O=C(NOC[C@H](O)CO)c1ccc(F)c(F)c1Nc1ccc(I)cc1F
89

---
Look at this compound and give its reported kinase still bound, per cent of control. CCOc1cc2ncc(C#N)c(Nc3ccc(OCc4ccccn4)c(Cl)c3)c2cc1NC(=O)/C=C/CN(C)C
100

Query (compound): Cc1cc([C@@H](C)Nc2ccccc2C(=O)O)c2nc(N3CCOCC3)cc(=O)n2c1 ; field requested: kinase still bound, per cent of control
86

Quick one: kinase still bound, per cent of control of O=C(NC1CC1)c1cccc(-c2ccc3c(NC(=O)C4CC4)n[nH]c3c2)c1 ?
42

GET /values?readout=kinase still bound, per cent of control&item= CCN1CCN(Cc2ccc(Nc3ncc4c(n3)N(C)c3ccccc3C(=O)N4C)cc2C(F)(F)F)CC1
86

Bench note: what kinase still bound, per cent of control did O=C1Nc2ccc(I)cc2/C1=C/c1cc(Br)c(O)c(Br)c1 show?
73

What value of kinase still bound, per cent of control has been recorded for this entry: Nc1ccc(-c2ccc3ncc4ccc(=O)n(-c5cccc(C(F)(F)F)c5)c4c3c2)cn1
100

Entry under review: COc1cc(N2CCN(C)CC2)ccc1Nc1nc(N)c(C(=O)c2c(Cl)cccc2Cl)s1 . Reported kinase still bound, per cent of control?
100

Requested read-out: kinase still bound, per cent of control. Entry: CN(C)C/C=C/C(=O)Nc1cccc(Nc2ncc3c(n2)N(C)c2ccccc2C(=O)N3C)c1
90

Please report the recorded kinase still bound, per cent of control for O=C(O)c1ccc(Nc2ncc3c(n2)-c2ccc(Cl)cc2C(c2c(F)cccc2F)=NC3)cc1 .
100

Which value of kinase still bound, per cent of control has been reported for CCC(=O)N1CCN(c2ccc(-n3c(=O)ccc4cnc5ccc(-c6cnc7ccccc7c6)cc5c43)cc2C(F)(F)F)CC1 in the records?
100

# get_value(readout='kinase still bound, per cent of control', item= N#Cc1c(NC(=O)c2cccc3ccccc23)sc2c1CCCC2 )
92

Reported kinase still bound, per cent of control for CCCS(=O)(=O)Nc1ccc(F)c(C(=O)c2c[nH]c3ncc(-c4ccc(Cl)cc4)cc23)c1F : what is it?
71

For C=CC(=O)Nc1cc(NC(=O)c2ccc(C)c(NC(=O)c3ccno3)c2)cc(C(F)(F)F)c1 , what is its reported kinase still bound, per cent of control?
100

Can you share its kinase still bound, per cent of control? I mean this compound: C=CC(=O)Nc1cccc(Nc2nc(N[C@H]3CC[C@H](N(C)C)CC3)nc3c2ncn3C(C)C)c1
85
